# TARGET OR TEST SYSTEM: T1, Recombinant human MASP1 enzyme (fragment corresponding to amino acids 297-699, C-terminal His Tag) (human, UniProt P48740 297-699)
# T1 sequence: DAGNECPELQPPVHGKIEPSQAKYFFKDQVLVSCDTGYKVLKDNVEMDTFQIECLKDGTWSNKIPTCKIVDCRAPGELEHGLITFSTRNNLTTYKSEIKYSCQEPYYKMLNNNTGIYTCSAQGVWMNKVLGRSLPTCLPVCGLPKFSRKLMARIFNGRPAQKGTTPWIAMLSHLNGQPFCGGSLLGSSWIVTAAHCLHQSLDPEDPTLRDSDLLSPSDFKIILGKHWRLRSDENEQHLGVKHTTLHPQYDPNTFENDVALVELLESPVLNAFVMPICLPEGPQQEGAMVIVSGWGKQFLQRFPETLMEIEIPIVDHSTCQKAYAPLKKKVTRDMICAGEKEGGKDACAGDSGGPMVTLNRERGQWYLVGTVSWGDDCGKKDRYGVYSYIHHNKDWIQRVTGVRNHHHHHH
# METHOD DESCRIPTION: cell-based or functional assay
Numbered stars: 1 amine (or outer) side, 2 acyl side, 3 side chain; on linkers, the order of the positions; unused ones are H or OH. Bridge positions count the residues as written; N and C are the ends. Square brackets hold non-standard residues; d marks the D form. Ends that are not written are not given here. X17 = 2‑((1S,2S)-1-(Amino)-2-methylbutyl)‑1,3‑oxazole‑4‑carboxylic acid, CC[C@H](C)[C@H](N[*:1])c1nc(C(=O)[*:2])co1; Oic = O=C(O)[C@@H]1C[C@@H]2CCCC[C@@H]2N1; tBuAla = CC(C)(C)C[C@H](N)C(=O)O; NMeC = CN[C@@H](CS)C(=O)O; Orn = NCCC[C@H](N)C(=O)O; Nva = CCC[C@H](N)C(=O)O; Sar = CNCC(=O)O
Listing of recorded human MASP1 IC50 by entry.
Record the value in nM, omitting the unit from your answer.

[Orn]ICSRS[tBuAla]PPI[NMeC][X17]D-NH2 (disulfide 3-11; N-terminus assumed; SMILES CC[C@H](C)[C@H](NC(=O)[C@@H](N)CCCN)C(=O)N[C@H]1CSSC[C@@H](C(=O)N[C@H](c2nc(C(=O)N[C@@H](CC(=O)O)C(N)=O)co2)[C@@H](C)CC)N(C)C(=O)[C@H]([C@@H](C)CC)NC(=O)[C@@H]2CCCN2C(=O)[C@@H]2CCCN2C(=O)[C@H](CC(C)(C)C)NC(=O)[C@H](CO)NC(=O)[C@H](CCCNC(=N)N)NC(=O)[C@H](CO)NC1=O) = 18
AICSRS[tBuAla]P[Oic]I[NMeC]IPD-OH (disulfide 3-11; also: HCl salt) [AIC+SRS-((tBu)A)-P-(Oic)-I-((N-Me)C)+IPD-OH (HCl salt)] = 3.8
[Sar]ICSRSLPPICIPD-NH2 (disulfide 3-11; also: HCl salt) [((N-Me)G)-IC+SRSLPPIC+IPD-NH2 (HCl salt)] = 7.1
[Nva]ICSRSLPPICIPD-NH2 (disulfide 3-11; N-terminus assumed; SMILES CCC[C@H](N)C(=O)N[C@H](C(=O)N[C@H]1CSSC[C@@H](C(=O)N[C@H](C(=O)N2CCC[C@H]2C(=O)N[C@@H](CC(=O)O)C(N)=O)[C@@H](C)CC)NC(=O)[C@H]([C@@H](C)CC)NC(=O)[C@@H]2CCCN2C(=O)[C@@H]2CCCN2C(=O)[C@H](CC(C)C)NC(=O)[C@H](CO)NC(=O)[C@H](CCCNC(=N)N)NC(=O)[C@H](CO)NC1=O)[C@@H](C)CC) [(Nva)-IC+SRSLPPIC+IPD-NH2] = 6.3

Then this binder:
// human MASP1 IC50 lookup, key: AICSRSLP[Oic]I[NMeC]IPD-NH2 (disulfide 3-11; N-terminus assumed; SMILES CC[C@H](C)[C@H](NC(=O)[C@H](C)N)C(=O)N[C@H]1CSSC[C@@H](C(=O)N[C@H](C(=O)N2CCC[C@H]2C(=O)N[C@@H](CC(=O)O)C(N)=O)[C@@H](C)CC)N(C)C(=O)[C@H]([C@@H](C)CC)NC(=O)[C@@H]2C[C@@H]3CCCC[C@@H]3N2C(=O)[C@@H]2CCCN2C(=O)[C@H](CC(C)C)NC(=O)[C@H](CO)NC(=O)[C@H](CCCNC(=N)N)NC(=O)[C@H](CO)NC1=O) [AIC+SRSLP-(Oic)-I-((N-Me)C)+IPD-NH2]
4.8
